Provenance of the data: ChEMBL document CHEMBL2169861

TESTED_SYSTEM: UniProtKB P18405
Sequence (whole entry): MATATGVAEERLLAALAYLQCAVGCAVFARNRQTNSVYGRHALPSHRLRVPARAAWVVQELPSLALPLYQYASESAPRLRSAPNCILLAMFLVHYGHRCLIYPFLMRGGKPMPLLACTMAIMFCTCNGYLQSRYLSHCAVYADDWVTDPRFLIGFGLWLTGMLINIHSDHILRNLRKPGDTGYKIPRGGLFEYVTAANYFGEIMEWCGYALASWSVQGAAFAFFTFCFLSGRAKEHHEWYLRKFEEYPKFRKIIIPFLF
PROCEDURE_TEXT: Inhibition of human type-1 5-alpha reductase expressed in HEK293 cells using [3H]-androstenedione as substrate at 10 uM after 30 mins by HPLC analysis
Assay type: cell-based
Hi there, I'd appreciate the recorded inhibition for every entry that follows.
Numbers only, in %.

Below, 5 compounds whose answers are already recorded.
>>> print(df.to_string())
                            chemical_smiles     tested_system  measured_parameter  reported_result
0  C=CCN1C(=O)CC[C@H]2[C@@H]3CC=C4C=C(C(=O)O)CC[C@]4(C)[C@H]3CC[C@@]21C  UniProtKB P18405          inhibition              0.4
1  C[C@]12CCC(C#N)=CC1=CC[C@@H]1[C@@H]2CC[C@@]2(C)[C@H]1CCC(=O)N2Cc1ccccc1  UniProtKB P18405          inhibition                0
2  C[C@]12CCC(C#N)=CC1=CC[C@@H]1[C@@H]2CC[C@@]2(C)[C@H]1CCC(=O)N2CCC#N  UniProtKB P18405          inhibition                0
3  C[C@]12CCC(C#N)=CC1=CC[C@@H]1[C@@H]2CC[C@@]2(C)[C@H]1CCC(=O)N2C(=O)c1ccccc1  UniProtKB P18405          inhibition                0
4  CC(=O)N1C(=O)CC[C@H]2[C@@H]3CC=C4C=C(C#N)CC[C@]4(C)[C@H]3CC[C@@]21C  UniProtKB P18405          inhibition              2.2

# batch size: 7; output inhibition per entry
1. C[C@]12CCC(Br)=CC1=CC[C@@H]1[C@@H]2CC[C@]2(C)NC(=O)CC[C@@H]12
2. CCOC(=O)CCN1C(=O)CC[C@H]2[C@@H]3CC=C4C=C(C(=O)O)CC[C@]4(C)[C@H]3CC[C@@]21C
3. C[C@]12CCC(C#N)=CC1=CC[C@@H]1[C@@H]2CC[C@]2(C)NC(=O)CC[C@@H]12
4. CN1C(=O)CC[C@H]2[C@@H]3CC=C4C=C(C(=O)O)CC[C@]4(C)[C@H]3CC[C@@]21C
5. CN1C(=O)CC[C@H]2[C@@H]3CC=C4C=C(C#N)CC[C@]4(C)[C@H]3CC[C@@]21C
6. CCN1C(=O)CC[C@H]2[C@@H]3CC=C4C=C(C#N)CC[C@]4(C)[C@H]3CC[C@@]21C
7. C[C@]12CCC(C(=O)O)=CC1=CC[C@@H]1[C@@H]2CC[C@]2(C)NC(=O)CC[C@@H]12

34.5
8.5
27.6
18.9
93
56.1
0
